system under test: p38MAPKγ (MAPK12) (Homo sapiens)
Construct: purchased Life Technologies
Sequence (P53778 whole entry): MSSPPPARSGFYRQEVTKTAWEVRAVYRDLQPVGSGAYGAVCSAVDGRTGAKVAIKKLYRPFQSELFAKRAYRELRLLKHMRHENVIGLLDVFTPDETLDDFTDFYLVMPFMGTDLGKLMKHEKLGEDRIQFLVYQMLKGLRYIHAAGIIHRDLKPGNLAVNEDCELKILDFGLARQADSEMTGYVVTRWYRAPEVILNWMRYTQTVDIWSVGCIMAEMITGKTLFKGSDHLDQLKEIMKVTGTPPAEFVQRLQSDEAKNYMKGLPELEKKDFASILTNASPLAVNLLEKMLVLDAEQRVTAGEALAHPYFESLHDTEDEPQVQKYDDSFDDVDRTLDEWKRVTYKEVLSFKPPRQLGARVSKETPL
procedure details: p38 MAPKγ enzyme inhibition (Z-LYTE FRET)
Type: biochemical
condition info: Table 2B, unit inferred; read-out: p38 MAPKγ (Enzyme Profile)
endpoint name: IC50 (µM)

### Prompt Data request, read-out IC50, for Cc1ccc(-n2nc(C(C)(C)C)cc2NC(=O)Nc2ccc(OCc3ccnc(Nc4cnc(C)c(C)n4)c3)c3ccccc23)cc1C
### Response 1.55

### Prompt Which value of IC50 has been reported for CO[C@H]1CCN(C(=O)c2cnc(Nc3cc(COc4ccc(NC(=O)Nc5cc(C(C)(C)C)nn5-c5ccc(C)cc5)c5ccccc45)ccn3)cn2)C1 in the records?
### Response 0.345

### Prompt Which IC50 is listed for CCc1cncc(Nc2cc(COc3ccc(NC(=O)Nc4cc(C(C)(C)C)nn4-c4ccc(C)c(OC)c4)c4ccccc34)ccn2)n1 ?
### Response 0.372

### Prompt Please give the measured IC50 for this compound: CO[C@H]1CCCN(C(=O)c2cnc(Nc3cc(COc4ccc(NC(=O)Nc5cc(C(C)(C)C)nn5-c5ccc(C)cc5)c5ccccc45)ccn3)cn2)C1
### Response 0.151

### Prompt Returns the measured IC50 for the input compound. Input: CO[C@@H]1CCN(CCNC(=O)c2cnc(Nc3cc(COc4ccc(NC(=O)Nc5cc(C(C)(C)C)nn5-c5ccc(C)cc5)c5ccccc45)ccn3)cn2)C1
### Response 0.116

(1) COc1cccc(-n2nc(C(C)(C)C)cc2NC(=O)Nc2ccc(OCc3ccnc(Nc4cnc(C)c(C)n4)c3)c3ccccc23)c1
(2) CO[C@@H]1CCCN(C(=O)c2cnc(Nc3cc(COc4ccc(NC(=O)Nc5cc(C(C)(C)C)nn5-c5ccc(C)cc5)c5ccccc45)ccn3)cn2)C1
(3) CCc1cncc(Nc2cc(COc3ccc(NC(=O)Nc4cc(C(C)(C)C)nn4-c4ccc(OC)c(F)c4)c4ccccc34)ccn2)n1
(4) COC(C)(C)CNC(=O)c1cnc(Nc2cc(COc3ccc(NC(=O)Nc4cc(C(C)(C)C)nn4-c4ccc(C)cc4)c4ccccc34)ccn2)cn1
(5) Cc1ccc(-n2nc(C(C)(C)C)cc2NC(=O)Nc2ccc(OCc3ccnc(Nc4cnc(C(=O)N5CCNC(=O)C5)cn4)c3)c3ccccc23)cc1
### Prompt Let's sort these by IC50, smallest first. Go ahead? Dear reader, please state the labels in the requested order.
### Response 5, 2, 1, 4, 3
